Kindly state pIC50 for each of the entries shown.
# system under test: native human TRPA1 receptors (Homo sapiens, UniProt O75762)
# Construct: stably expressing native human TRPA1 receptors were used; endogenous in cells; host or cells: A549 human lung adenocarcinoma epithelial cell line
# Sequence (O75762 whole entry): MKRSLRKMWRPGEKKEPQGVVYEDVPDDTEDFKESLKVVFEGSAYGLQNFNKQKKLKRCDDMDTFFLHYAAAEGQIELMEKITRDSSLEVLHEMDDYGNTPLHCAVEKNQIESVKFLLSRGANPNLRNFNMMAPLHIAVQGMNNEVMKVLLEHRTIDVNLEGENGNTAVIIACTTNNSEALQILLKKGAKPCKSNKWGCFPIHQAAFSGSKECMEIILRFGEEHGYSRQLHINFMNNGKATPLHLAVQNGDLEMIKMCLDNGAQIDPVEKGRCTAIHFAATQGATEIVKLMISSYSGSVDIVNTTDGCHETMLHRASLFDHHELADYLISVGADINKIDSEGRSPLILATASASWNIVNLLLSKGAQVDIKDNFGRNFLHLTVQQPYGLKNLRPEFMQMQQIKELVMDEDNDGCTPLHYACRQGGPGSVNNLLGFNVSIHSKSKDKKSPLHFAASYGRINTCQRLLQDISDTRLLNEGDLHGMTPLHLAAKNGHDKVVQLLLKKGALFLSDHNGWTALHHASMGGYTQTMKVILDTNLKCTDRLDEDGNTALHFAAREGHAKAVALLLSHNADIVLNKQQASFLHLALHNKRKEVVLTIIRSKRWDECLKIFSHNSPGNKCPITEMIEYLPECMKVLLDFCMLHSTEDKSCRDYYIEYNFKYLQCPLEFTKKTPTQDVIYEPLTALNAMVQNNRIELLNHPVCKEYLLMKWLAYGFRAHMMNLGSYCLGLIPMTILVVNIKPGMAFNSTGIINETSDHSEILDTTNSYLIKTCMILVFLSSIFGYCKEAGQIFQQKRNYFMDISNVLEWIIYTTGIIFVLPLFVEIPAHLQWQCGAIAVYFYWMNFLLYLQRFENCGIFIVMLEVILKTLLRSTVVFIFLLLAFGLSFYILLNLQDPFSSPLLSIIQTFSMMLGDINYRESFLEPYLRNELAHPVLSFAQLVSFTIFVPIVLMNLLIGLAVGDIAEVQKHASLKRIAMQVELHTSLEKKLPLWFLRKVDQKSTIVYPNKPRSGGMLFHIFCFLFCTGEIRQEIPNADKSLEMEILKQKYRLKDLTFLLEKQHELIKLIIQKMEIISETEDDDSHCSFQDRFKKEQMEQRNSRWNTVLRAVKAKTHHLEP
# test details: PF-4840154 (1 μM)-induced Ca2+ fluorescence measurements in A549 cell line
# Format: cell-based
# recorded conditions: against PF-4840154 (1 μM)-evoked [Ca2+]i mobilization, A549 cells
Reminder that pIC50 is minus the log10 of a molar concentration.

Ask: Could you tell me which pIC50 is on file for C=C(C(=O)NCc1cc(-c2ccc(C(F)(F)F)cc2)nc(N2CCCC2)c1)N(CC)S(=O)(=O)c1ccc(F)cc1 [Example 38] ?
Reply: 7.77

Ask: Query (compound): C=C(C(=O)NCc1cc(-c2ccc(C(F)(F)F)cc2)nc(N(C)C)c1)N(CC)S(=O)(=O)c1cccs1 [Example 41] ; field requested: pIC50
Reply: 6.87

Ask: Recorded pIC50 of C=C(C(=O)NCc1cc(-c2ccc(C(F)(F)F)cc2)nc(N(C)C)c1)N(CC)S(=O)(=O)c1ccc(Cl)s1 [Example 39] , please.
Reply: 7.70

Ask: What measured pIC50 goes with C=C(C(=O)NCc1ccnc(-c2ccc(OC(F)(F)F)cc2)c1)N(CC)S(=O)(=O)c1ccc(Cl)cc1 [Example 5] ?
Reply: 7.00

Ask: Which pIC50 is listed for C=C(C(=O)NCc1cccc(-c2ccc(C(F)(F)F)cc2)c1)N(CC)S(=O)(=O)c1ccc(F)cc1 [Example 8] ?
Reply: 7.12
